Measured values drawn from patent US8110543B2 for this set.

- substance: "Ac-KPSSPPEE-NH2 [Å6]"
  solubility: "> 100 mg/mL"

----------
- condition-set: mouse, in vivo, iv, 37.5 mg/kg

- substance: "Ac-KPSSPPEE-NH2 [Å6]"
  uom: "mL/min/kg"
  clearance: 33.3

----------
- Tested on: 3LL cells
- measurement-notes: Tumor angiogenesis (microvessel density) in 3LL model
- Type: in vivo, Mice
- condition-set: 100-250 mg/kg/day; compared to controls
readout-kind: number of microvessels in the region of the primary tumor

- substance: "Ac-Pro-Ser-Ser-Pro-Pro-Glu-Glu-Am (Ac-PSSPPEE-NH2) [Ac-PSSPPEE-Am]"
  val: "no significant effect"
- substance: "Ac-KPTTPPEE-Am: disubstitution variant at positions 3 and 4 (SEQ ID NO: 6) (Ac-KPTTPPEE-NH2)"
  val: "significant reduction"
- substance: "Ac-RPSSPPEE-Am: substitution variant at position 1 (SEQ ID NO: 8) (Ac-RPSSPPEE-NH2)"
  val: "significant reduction"
- substance: "Ac-KPSSPPEELK-Am: capped counterpart of KPSSPPEELK (SEQ ID NO: 1) (Ac-KPSSPPEELK-NH2) [reference compound]"
  val: "no significant effect"
- substance: "Ac-KPSSPPDD-Am: disubstitution variant at positions 7 and 8 (SEQ ID NO: 7) (Ac-KPSSPPDD-NH2)"
  val: "significant reduction"
- substance: "Ac-Lys-Pro-Ser-Ser-Pro-Pro-Glu-Am (Ac-KPSSPPE-NH2) [Ac-KPSSPPE-Am]"
  val: "no significant effect"
- substance: "Ac-KPSSPPEE-NH2 [Å6]"
  val: "significant reduction"
